Parameter TGI: see the listing below.
- Test system: LOX IMVI melanoma
- assayOverview: NCI tumour cell line growth inhibition, 48 h
Kindly provide the numeric value in µM only, without the unit symbol.

Examples with their reported TGI follow.
compound	measuredMetric	unitOfMeasurement	assayResult
CC(C)[C@H](COC(C)(C)C)N=CN1CSc2ccccc21	TGI	µM	93.2
CCOC(=O)C1=C(C)N(Cc2ccc(Cl)cc2Cl)C2(O)C(OC)CC(=O)C3C(=O)N(c4ccccc4)C(=O)C132 (configuration not stated)	TGI	µM	2.23
COC(=O)c1ccc(NCc2cc(O)c3ccccc3c2O)cc1	TGI	µM	11.5
C[C@]1(O)CC(=O)[C@]2(O)C3=C(C=C[C@]2(O)C1)C(=O)c1c(O)cccc1C3=O	TGI	µM	5.77
CCc1nc2cc(/C=C/C(=O)NO)c(F)cc2c(=O)n1CCc1ccccc1	TGI	µM	1.97

Give recorded TGI with LOX IMVI melanoma for the following compound: `CC1=CC(=O)c2cccc(O)c2C1=O` 8.6

Requested read-out TGI, target or system LOX IMVI melanoma, entry COc1cc([C@@H]2c3cc4c(cc3[C@@H](NC(=O)c3ccc(C(C)=O)cc3)C3COC(=O)[C@@H]32)OCO4)cc(OC)c1O (some centres not stated) 4.68

Query TGI on LOX IMVI melanoma for `COC(=O)/C1=C/C2CC(/C=C(/c3ccccc3)C(=O)O1)C2` 40.3

Query TGI on LOX IMVI melanoma for O=C(Cc1ccccc1)NN1C(=O)C(Cl)C1c1cc(Br)cc(Br)c1O (configuration not stated) 40

Field: TGI (LOX IMVI melanoma). Entry: `CCCCCCCCOC(=O)c1cc(O)c(O)c(O)c1` 10.6

Look up TGI with LOX IMVI melanoma for this compound: C=C(Cl)C(Br)(CCl)CCC(Cl)C(C)C (configuration not stated) (tested in a mixture with another compound) 1.23

For LOX IMVI melanoma, provide TGI of `COc1cccc(NC(=O)c2ccc(C(F)(F)F)nc2Nc2ccc(Cl)cc2C)c1` please. 23.4

// fetch LOX IMVI melanoma TGI for `CC(=O)c1ccc(NCn2nc(-c3ccccc3O)oc2=S)cc1` 45.5
